assay: physchem; details: 27 °C, organic solvent or mixture, thermodynamic from solid, AVERAGE SOLUBILITY
reported metric: solubility at 60 min (mg/mL)

# compound, reported metric, value measured
rows = [
    ("CC(=O)c1cc(C)cc(C)c1NC(=O)c1sccc1S(=O)(=O)Nc1onc(C)c1C [Form E]", "solubility at 60 min", 11),
]

###

assay: Solubility of Forms A, C and E in ethanol (gravimetric); conditions: ethanol, 25 °C, organic solvent or mixture, thermodynamic from solid, AVERAGE SOLUBILITY, 60 min

# compound, solubility at 60 min (mg/mL)
data = [
    ("CC(=O)c1cc(C)cc(C)c1NC(=O)c1sccc1S(=O)(=O)Nc1onc(C)c1C [Form C]", 13.2),
]

###

assay: Approximate solubilities of Form A in various solvents at ambient temperature; type: physicochemical; settings: hexanes, organic solvent or mixture, thermodynamic from solid, approximate

# molecule, solubility
records = [
    ("CC(=O)c1cc(C)cc(C)c1NC(=O)c1sccc1S(=O)(=O)Nc1onc(C)c1C [Form A]", "< 9000 µg/mL"),
]

###

experiment: Approximate solubilities of Form A in various solvents at ambient temperature; format: physicochemical; details: methanol, organic solvent or mixture, thermodynamic from solid, approximate
reported metric: solubility (mg/mL)

# compound, unit descriptor, value measured
records = [
    ("CC(=O)c1cc(C)cc(C)c1NC(=O)c1sccc1S(=O)(=O)Nc1onc(C)c1C [Form A]", "mg/mL", 21),
]

###

assay: physchem; conditions: 35 °C, organic solvent or mixture, thermodynamic from solid, AVERAGE SOLUBILITY

# molecule, solubility at 60 min
data = [
    ("CC(=O)c1cc(C)cc(C)c1NC(=O)c1sccc1S(=O)(=O)Nc1onc(C)c1C [Form E]", "18.3 mg/mL"),
]

###

assay: Approximate solubilities of Form A in various solvents at ambient temperature; assay type: physicochemical; settings: N,N-dimethylformamide, organic solvent or mixture, thermodynamic from solid, approximate
reported metric: solubility (mg/mL)

# compound, reported metric, value measured
measured = [
    ("CC(=O)c1cc(C)cc(C)c1NC(=O)c1sccc1S(=O)(=O)Nc1onc(C)c1C [Form A]", "solubility", 250),
]

###

experiment: Moisture sorption/desorption; assay type: physicochemical; conditions: 5% RH
reported metric: Moisture Balance Results: weight loss at 5% RH

# molecule, value measured
data = [
    ("CC(=O)c1cc(C)cc(C)c1NC(=O)c1sccc1S(=O)(=O)Nc1onc(C)c1C [Form C]", "<0.1% weight loss at 5% RH,"),
    ("CC(=O)c1cc(C)cc(C)c1NC(=O)c1sccc1S(=O)(=O)Nc1onc(C)c1C [amorphous]", "<0.1% weight loss at 5% RH,"),
    ("CC(=O)c1cc(C)cc(C)c1NC(=O)c1sccc1S(=O)(=O)Nc1onc(C)c1C [Form A]", "<0.1% weight loss at 5% RH,"),
    ("CC(=O)c1cc(C)cc(C)c1NC(=O)c1sccc1S(=O)(=O)Nc1onc(C)c1C [Form E]", "<0.1% weight loss at 5% RH,"),
]

###

assay: Approximate solubilities of Form A in various solvents at ambient temperature; type: physicochemical; details: ethanol, organic solvent or mixture, thermodynamic from solid, approximate
reported metric: solubility (µg/mL)

# molecule, value measured
records = [
    ("CC(=O)c1cc(C)cc(C)c1NC(=O)c1sccc1S(=O)(=O)Nc1onc(C)c1C [Form A]", 9000),
]
